Molecular target: BIR2 domain of XIAP (Homo sapiens (Human), UniProt P98170, C202A/C213G)
Sequence (P98170 other isoform, or with tags, fused parts or gaps, stated change not applied): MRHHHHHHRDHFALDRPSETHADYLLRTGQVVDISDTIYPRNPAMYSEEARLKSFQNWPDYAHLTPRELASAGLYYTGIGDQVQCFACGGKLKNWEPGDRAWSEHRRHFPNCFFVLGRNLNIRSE
Experiment: TR-FRET assay for BIR2: inhibition of binding of the XIAP BIR2 domain to Peptide A (SMAC-derived peptide)
Conditions: read-out: Ic50 BIR2
Structures can show the parent of a compound that is named as a salt.
reported.property: IC50

Ask | Look at this compound and give its reported IC50. CN[C@@H](C)C(=O)N[C@H](C(=O)N1c2ncccc2CC1CNC(C)=O)C(C)C (stereo partly shown) [Example 2, hydrochloride]
Reply | 4.67 µM

---

Biological target: BIR2 domain of XIAP (Homo sapiens (Human), UniProt P98170, C202A/C213G)
Experiment: TR-FRET assay for BIR2: inhibition of binding of the XIAP BIR2 domain to Peptide A (SMAC-derived peptide)
Details: 6x His-tagged BIR2 domain (aa 124-240 of XIAP), 10 nM; 20 nM Peptide A; TR-FRET; read-out: Ic50 BIR2
pIC50: −log10 of the molar value. Where a name gives a salt, the structure may show the parent alone.
Mark No for pIC50 values under 6, and Yes for everything at or above.

Below are worked cases with known answers.
molecule	class.assignment
CN[C@@H](C)C(=O)N[C@H](C(=O)N1c2ncccc2C[C@H]1CNC(=O)Nc1ccccc1)C(C)C [Example 7, hydrochloride]	No
CN[C@@H](C)C(=O)N[C@H](C(=O)N1c2ncccc2C[C@H]1CNC(=O)N(C)C)C(C)C [Example 6, hydrochloride]	No
CNC(=O)NCC1Cc2cccnc2N1C(=O)[C@@H](NC(=O)[C@H](C)NC)C(C)C (stereo partly shown) [Example 3, hydrochloride]	No
CN[C@@H](C)C(=O)N[C@H](C(=O)N1c2ncccc2C[C@H]1CNC(=O)OC)C(C)C [Example 5, hydrochloride]	No
CN[C@@H](C)C(=O)N[C@H](C(=O)N1c2ncccc2C[C@H]1CNc1ccccc1)C(C)C [Example 13, hydrochloride]	Yes
CN[C@@H](C)C(=O)N[C@H](C(=O)N1c2ncccc2C[C@H]1CNC(=O)Cc1ccccc1)C(C)C [Example 4, hydrochloride]	No

Ask | Is the recorded value of pIC50 equal to or greater than 6 for this molecule? CN[C@@H](C)C(=O)N[C@H](C(=O)N1c2ncccc2C[C@H]1CNc1ccc2ccccc2c1)C(C)C [Example 14, hydrochloride]
Reply | Yes
